TARGET: KRAS(G12D)/SOS1 (Homo sapiens, UniProt P01116, G12D)
Sequence (P01116 1-188 isoform P01116-2 G12D): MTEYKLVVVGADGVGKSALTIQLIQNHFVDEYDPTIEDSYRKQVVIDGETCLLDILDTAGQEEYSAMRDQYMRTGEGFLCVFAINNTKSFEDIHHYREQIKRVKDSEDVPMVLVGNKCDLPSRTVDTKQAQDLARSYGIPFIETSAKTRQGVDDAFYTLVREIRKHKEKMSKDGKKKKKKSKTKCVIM
PROTOCOL NOTES: KRAS(G12D)/SOS1 homogeneous time-resolved fluorescence (HTRF) assay
STATED CONDITIONS: absence of GTP; 4° C., 3 hr

- MOLECULE: "CC(C)c1cc(C(=O)N2Cc3ccc(CN4CCC(CN5CCN(CC6(COc7nc(N8CC9CCC(C8)N9)c8cnc(-c9cc(O)cc%10ccccc9%10)c(F)c8n7)CC6)CC5)CC4)cc3C2)c(O)cc1O"
  IC50: "< 100 nM"
- MOLECULE: "Cc1cccc2cccc(-c3ncc4c(N5CC6CCC(C5)N6)nc(OC[C@@H]5C[C@H](N6CCN(Cc7ccc(-n8c(O)nnc8-c8cc(C(C)C)c(O)cc8O)cc7)CC6)CN5C)nc4c3F)c12"
  IC50: "100 to 1000 nM"
- MOLECULE: "C#Cc1cccc2cccc(-c3ncc4c(N5CC6CCC(C5)N6)nc(OCC5CC[C@H](CN6CCN(C(=O)C7CCN(Cc8ccc(-n9c(O)nnc9-c9cc(C(C)C)c(O)cc9O)cc8)CC7)CC6)N5C)nc4c3F)c12 (stereo partly drawn)"
  IC50: "< 100 nM"
- MOLECULE: "C#Cc1cccc2cc(O)cc(-c3ncc4c(N5CC6CCC(C5)N6)nc(OCC5(CN6CCN(Cc7ccc(-n8c(C(=O)NCC(F)(F)F)nnc8-c8cc(C(C)C)c(O)cc8O)cc7)CC6)CC5)nc4c3F)c12"
  IC50: "< 100 nM"
- MOLECULE: "C#Cc1cccc2cccc(-c3ncc4c(N5CC6CCC(C5)N6)nc(OC[C@@H]5CC[C@H](CN6CCN(Cc7ccc(-n8c(O)nnc8-c8cc(C(C)C)c(O)cc8O)cc7)CC6)N5C)nc4c3F)c12"
  IC50: "< 100 nM"
- MOLECULE: "C#Cc1c(F)ccc2cc(O)cc(-c3nc(OC)c4c(N5CC6CCC(C5)N6)nc(OCC5(CNCC6CN(Cc7ccc8c(c7)CN(C(=O)c7cc(C(C)C)c(O)cc7O)C8)CCO6)CC5)nc4c3F)c12 (stereo not drawn)"
  IC50: "< 100 nM"
- MOLECULE: "C#Cc1cccc2cccc(-c3ncc4c(N5CC6CCC(C5)N6)nc(OCC5(CN6CCN(Cc7ccc(-n8c(C(=O)NCC(F)(F)F)nnc8-c8cc(C(C)C)c(O)cc8O)cc7)CC6)CC5)nc4c3F)c12"
  IC50: "< 100 nM"
- MOLECULE: "C#Cc1c(F)ccc2cc(O)cc(-c3ncc4c(N5CC6CNC(C6)C5)nc(OCC5(CN6CCN(C7CCN(Cc8ccc(-n9c(C(=O)NC(C)C(F)(F)F)nnc9-c9cc(C(C)C)c(O)cc9O)cc8)CC7)CC6)CC5)nc4c3F)c12 (stereo not drawn)"
  IC50: "100 to 1000 nM"
- MOLECULE: "CC(C)c1cc(C(=O)N2Cc3ccc(CN4CCN([C@H]5C[C@@H](COc6nc(N7CC8CNC(C8)C7)c7cnc(-c8cc(O)cc9ccccc89)c(F)c7n6)N(C)C5)CC4)cc3C2)c(O)cc1O (stereo partly drawn)"
  IC50: "> 1000 nM"
- MOLECULE: "C#Cc1cccc2cc(O)cc(-c3ncc4c(N5CC6CCC(C5)N6)nc(OCC5(CN6CCN(CC7CCN(Cc8ccc9c(c8)CN(C(=O)c8cc(C(C)C)c(OC)cc8O)C9)CC7)CC6)CC5)nc4c3F)c12"
  IC50: "< 100 nM"
- MOLECULE: "COc1cccc2cccc(-c3ncc4c(N5CC6CCC(C5)N6)nc(OC[C@@H]5C[C@H](N6CCN(Cc7ccc(-n8c(C(=O)NC(C)C(F)(F)F)nnc8-c8cc(C(C)C)c(O)cc8O)cc7)CC6)CN5C)nc4c3F)c12 (stereo partly drawn)"
  IC50: "> 1000 nM"
- MOLECULE: "C#Cc1cccc2cc(O)cc(-c3ncc4c(N5CC6CCC(C5)N6)nc(OCC5(CN6CCN(C(=O)C7CCN(Cc8ccc9c(c8)CN(C(=O)c8cc(C(C)C)c(O)cc8O)C9)CC7)CC6)CC5)nc4c3F)c12"
  IC50: "< 100 nM"
- MOLECULE: "C#Cc1cccc2cccc(-c3ncc4c(N5CC6CCC(C5)N6)nc(OC[C@@H]5C[C@H](CN6CCN(Cc7ccc8c(c7)CN(C(=O)c7cc(C(C)C)c(O)cc7O)C8)CC6)CN5C)nc4c3F)c12"
  IC50: "< 100 nM"
- MOLECULE: "CCNC(=O)c1nnc(-c2cc(C(C)C)c(O)cc2O)n1-c1ccc(CN2CCC(C(=O)N(C)[C@H]3CN4CCC[C@@]4(COc4nc(N5CC6CCC(C5)N6)c5cnc(-c6cc(O)cc7ccccc67)c(F)c5n4)C3)CC2)cc1"
  IC50: "< 100 nM"
- MOLECULE: "C#Cc1c(F)ccc2cc(O)cc(-c3ncc4c(N5CC6CCC(C5)N6)nc(OCC5(CN6CCC(C7CCN(Cc8ccc(-n9c(C(=O)NC(C)C(F)(F)F)nnc9-c9cc(C(C)C)c(O)cc9O)cc8)CC7)CC6)CC5)nc4c3F)c12 (stereo not drawn)"
  IC50: "< 100 nM"
- MOLECULE: "C#Cc1cccc2cc(O)cc(-c3ncc4c(N5CC6CNC(C6)C5)nc(OCC5(CN6CCN(CC7CCN(Cc8ccc(-n9c(C(=O)NCC(F)(F)F)nnc9-c9cc(C(C)C)c(O)cc9O)cc8)CC7)CC6)CC5)nc4c3F)c12 (stereo not drawn)"
  IC50: "< 100 nM"
- MOLECULE: "CC(C)c1cc(C(=O)N2Cc3ccc(CN4CCC(C(=O)N(C)[C@H]5CN6CCC[C@]6(COc6nc(N7CC8CCC(C7)N8)c7cnc(-c8cc(O)cc9ccccc89)c(F)c7n6)C5)CC4)cc3C2)c(O)cc1O"
  IC50: "< 100 nM"
- MOLECULE: "CCNC(=O)c1nnc(-c2cc(C(C)C)c(O)cc2O)n1-c1ccc(CN2CCN([C@H]3C[C@@H](COc4nc(N5CC6CCC(C5)N6)c5cnc(-c6cc(O)cc7ccccc67)c(F)c5n4)N(C)C3)CC2)cc1"
  IC50: "< 100 nM"

Every entry's value here was drawn from patent US20260070929A1.
